Reported inhibition at 0.1 µM values for the following molecules.
# TARGET_SYSTEM: EGFR (ErbB1) (Homo sapiens)
# Construct: purchased Invitrogen
# Sequence (P00533 25-1210): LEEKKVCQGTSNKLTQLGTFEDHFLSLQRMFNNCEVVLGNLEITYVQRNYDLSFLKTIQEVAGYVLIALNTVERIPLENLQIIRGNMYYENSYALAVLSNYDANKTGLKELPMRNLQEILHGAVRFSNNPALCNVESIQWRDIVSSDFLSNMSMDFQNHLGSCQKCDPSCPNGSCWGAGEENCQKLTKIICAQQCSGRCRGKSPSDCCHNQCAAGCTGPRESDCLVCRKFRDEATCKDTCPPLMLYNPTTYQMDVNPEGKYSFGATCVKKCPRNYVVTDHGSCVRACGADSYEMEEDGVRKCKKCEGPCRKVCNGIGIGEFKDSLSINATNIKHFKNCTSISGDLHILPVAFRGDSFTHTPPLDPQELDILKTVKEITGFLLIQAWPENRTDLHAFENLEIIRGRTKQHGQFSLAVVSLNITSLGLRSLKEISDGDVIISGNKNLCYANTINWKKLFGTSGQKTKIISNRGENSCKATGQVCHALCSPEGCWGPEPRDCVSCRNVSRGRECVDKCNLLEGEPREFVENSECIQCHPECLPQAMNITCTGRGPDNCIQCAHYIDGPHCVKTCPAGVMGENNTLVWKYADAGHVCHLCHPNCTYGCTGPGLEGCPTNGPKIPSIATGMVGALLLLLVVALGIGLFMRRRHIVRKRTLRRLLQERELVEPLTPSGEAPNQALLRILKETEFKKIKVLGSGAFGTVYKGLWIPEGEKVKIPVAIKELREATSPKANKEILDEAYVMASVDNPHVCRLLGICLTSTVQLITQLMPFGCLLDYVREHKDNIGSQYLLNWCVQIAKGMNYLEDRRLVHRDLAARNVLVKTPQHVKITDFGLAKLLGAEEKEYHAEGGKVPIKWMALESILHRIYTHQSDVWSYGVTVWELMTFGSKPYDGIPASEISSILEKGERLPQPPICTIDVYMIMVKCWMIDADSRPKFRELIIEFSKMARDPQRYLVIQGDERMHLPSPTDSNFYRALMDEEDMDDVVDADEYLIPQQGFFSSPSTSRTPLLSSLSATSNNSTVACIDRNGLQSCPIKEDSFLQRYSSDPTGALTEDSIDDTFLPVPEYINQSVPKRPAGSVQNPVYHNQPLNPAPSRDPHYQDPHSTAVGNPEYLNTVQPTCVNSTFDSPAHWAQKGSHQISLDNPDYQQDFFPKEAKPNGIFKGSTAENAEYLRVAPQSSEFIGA
# EXPERIMENTAL_PROTOCOL: In vitro kinase assay (Z'-LYTE, Invitrogen)
# Format: biochemical
# CONDITION_PARAMETERS: compound at 100 nM, ATP Km apparent, read-out: % of inhibition of the kinase compared to the control

# TEST_SMILES, inhibition at 0.1 µM
data = [
    ("COC(=O)c1cc2cc(CCc3cc(NC(=O)c4ccc(CN5CCN(C)CC5)c(F)c4)ccc3C)cnc2[nH]1", "≥ 50%"),
    ("COC(=O)c1cc2cc(CCc3cccc(NC(=O)c4ccc(CN5CCN(C)CC5)c(C(F)(F)F)c4)c3)cnc2[nH]1", "≥ 50%"),
    ("COC(=O)c1cc2cc(CCc3cc(NC(=O)c4ccc(CN5CCN(C)CC5)cc4)ccc3C)cnc2[nH]1", "≥ 50%"),
    ("COC(=O)c1cc2cc(C=Cc3cc(NC(=O)c4ccc(CN5CCN(C)CC5)c(C(F)(F)F)c4)ccc3C)cnc2[nH]1", "≥ 50%"),
]
